- targetUnderTest: T1, HLA-A*03:01 (human)
- T1 construct: MHC class I monomer first loaded with a UV-sensitive peptide that is cleaved by UV irradiation and exchanged for the test peptide; captured on streptavidin plates; also called peptide-receptive MHC molecules
- testProtocol: UV-ligand exchange, anti-b2m ELISA; peptide exchange yield grade (>10% +, >20% ++, >50% +++, >75% ++++)
measuredQuantity: peptide exchange yield

| binder | reading |
| --- | --- |
| RVLYRPQLEK | 50 to 75% |
| SVLDKLLFH | > 75% |
| ATIGLSVSK | > 75% |
| RLGAARGQLR | 20 to 50% |
| KAFNQSSIFTK | 50 to 75% |
| KQALSLVRK | 50 to 75% |
| KLSLSHKK | 50 to 75% |
| AATIISSAK | 10 to 20% |
| QIRAELMKK | > 75% |
| GVTITKTLK | 50 to 75% |
| RVYPRPPSK | > 75% |
| KCYEVGMMK | > 75% |
| RIVDYLLEK | > 75% |
| RVLPPLTRILK | > 75% |
| RLASVGLDAK | > 75% |
| HAFPPGPNY | 10 to 20% |
